Where do these numbers come from? They come from ChEMBL document CHEMBL5576051.

test system: MDA-MB-231; assay: Antiproliferative activity against estrogen receptor negative human MDA-MB-231 cells assessed as inhibition of cell viability by MTT assay; assay type: functional, cell-based
pIC50: −log10 of the molar value.
METRIC: pIC50

>>> print(df.to_string())
                                   compound  measured_value
0  COc1ccc2c(c1)OC(C)(C)CC2C(c1ccc(OCCN(C)C)cc1)c1ccccc1F (configuration not stated)            4.72
1  COc1ccc2c(c1)OC(C)(C)CC2C(c1ccccc1)c1ccccc1O (configuration not stated)            4.98
2  COc1ccc2c(c1)OC(C)(C)C/C2=C(\c1ccccc1)c1ccccc1OCCN1CCCC1            4.89
3  CC/C(=C(\c1ccccc1)c1ccc(OCCN(C)C)cc1)c1ccccc1 [TAMOXIFEN]            5.00

1: COc1ccc2c(c1)OC(C)(C)C/C2=C(\c1ccccc1)c1ccccc1OCCN(C)C
2: COc1ccc2c(c1)OC(C)(C)C/C2=C(/c1ccc(O)cc1)c1ccccc1F
1 or 2 : whose pIC50 is greater? Please identify the chosen entry by its label.
1
